Values were extracted from BigSolDB 2.1.

RECORDED_CONDITIONS: in methanol, 308.25 K

| SMILES_STR | solubility (mole fraction) |
| --- | --- |
| O=C([O-])c1ccccc1.[K+] | 0.0167 |

* * *

RECORDED_CONDITIONS: in n-propanol, 293.25 K

| SMILES_STR | solubility (mole fraction) |
| --- | --- |
| O=C([O-])c1ccccc1.[K+] | 0.000841 |

* * *

RECORDED_CONDITIONS: in DMF, 298.25 K
METRIC: solubility (mole fraction)

| SMILES_STR | ASSAY_RESULT |
| --- | --- |
| O=C([O-])c1ccccc1.[K+] | 0.000502 |

* * *

RECORDED_CONDITIONS: in n-pentanol, 317.95 K

| SMILES_STR | solubility (mole fraction) |
| --- | --- |
| O=C([O-])c1ccccc1.[K+] | 0.00105 |

* * *

RECORDED_CONDITIONS: in DMF, 303.35 K

| SMILES_STR | solubility (mole fraction) |
| --- | --- |
| O=C([O-])c1ccccc1.[K+] | 0.000587 |

* * *

RECORDED_CONDITIONS: in n-propanol, 317.95 K

| SMILES_STR | solubility (mole fraction) |
| --- | --- |
| O=C([O-])c1ccccc1.[K+] | 0.00126 |

* * *

RECORDED_CONDITIONS: in isobutanol, 298.25 K

| SMILES_STR | solubility (mole fraction) |
| --- | --- |
| O=C([O-])c1ccccc1.[K+] | 0.000355 |

* * *

RECORDED_CONDITIONS: in isobutanol, 303.35 K

| SMILES_STR | solubility (mole fraction) |
| --- | --- |
| O=C([O-])c1ccccc1.[K+] | 0.000402 |

* * *

RECORDED_CONDITIONS: in n-pentanol, 308.25 K
METRIC: solubility (mole fraction)

| SMILES_STR | ASSAY_RESULT |
| --- | --- |
| O=C([O-])c1ccccc1.[K+] | 0.000929 |

* * *

RECORDED_CONDITIONS: in n-pentanol, 298.25 K
METRIC: solubility (mole fraction)

| SMILES_STR | ASSAY_RESULT |
| --- | --- |
| O=C([O-])c1ccccc1.[K+] | 0.000776 |

* * *

RECORDED_CONDITIONS: in methanol, 303.35 K

| SMILES_STR | solubility (mole fraction) |
| --- | --- |
| O=C([O-])c1ccccc1.[K+] | 0.0162 |

* * *

RECORDED_CONDITIONS: in isopropanol, 317.95 K
METRIC: solubility (mole fraction)

| SMILES_STR | ASSAY_RESULT |
| --- | --- |
| O=C([O-])c1ccccc1.[K+] | 0.000511 |

* * *

RECORDED_CONDITIONS: in formamide, 287.95 K
METRIC: solubility (mole fraction)

| SMILES_STR | ASSAY_RESULT |
| --- | --- |
| O=C([O-])c1ccccc1.[K+] | 0.0444 |

* * *

RECORDED_CONDITIONS: in formamide, 308.25 K

| SMILES_STR | solubility (mole fraction) |
| --- | --- |
| O=C([O-])c1ccccc1.[K+] | 0.0473 |

* * *

RECORDED_CONDITIONS: in DMAc, 293.25 K
METRIC: solubility (mole fraction)

| SMILES_STR | ASSAY_RESULT |
| --- | --- |
| O=C([O-])c1ccccc1.[K+] | 0.000287 |

* * *

RECORDED_CONDITIONS: in isopropanol, 282.95 K

| SMILES_STR | solubility (mole fraction) |
| --- | --- |
| O=C([O-])c1ccccc1.[K+] | 0.000225 |

* * *

RECORDED_CONDITIONS: in methanol, 317.95 K
METRIC: solubility (mole fraction)

| SMILES_STR | ASSAY_RESULT |
| --- | --- |
| O=C([O-])c1ccccc1.[K+] | 0.0181 |

* * *

RECORDED_CONDITIONS: in isopropanol, 293.25 K
METRIC: solubility (mole fraction)

| SMILES_STR | ASSAY_RESULT |
| --- | --- |
| O=C([O-])c1ccccc1.[K+] | 0.000286 |

* * *

RECORDED_CONDITIONS: in isopropanol, 303.35 K
METRIC: solubility (mole fraction)

| SMILES_STR | ASSAY_RESULT |
| --- | --- |
| O=C([O-])c1ccccc1.[K+] | 0.000354 |

* * *

RECORDED_CONDITIONS: in ethanol, 312.85 K

| SMILES_STR | solubility (mole fraction) |
| --- | --- |
| O=C([O-])c1ccccc1.[K+] | 0.0021 |

* * *

RECORDED_CONDITIONS: in isopropanol, 287.95 K

| SMILES_STR | solubility (mole fraction) |
| --- | --- |
| O=C([O-])c1ccccc1.[K+] | 0.000256 |

* * *

RECORDED_CONDITIONS: in DMF, 308.25 K

| SMILES_STR | solubility (mole fraction) |
| --- | --- |
| O=C([O-])c1ccccc1.[K+] | 0.000665 |

* * *

RECORDED_CONDITIONS: in n-propanol, 298.25 K

| SMILES_STR | solubility (mole fraction) |
| --- | --- |
| O=C([O-])c1ccccc1.[K+] | 0.000892 |

* * *

RECORDED_CONDITIONS: in formamide, 317.95 K

| SMILES_STR | solubility (mole fraction) |
| --- | --- |
| O=C([O-])c1ccccc1.[K+] | 0.0489 |

* * *

RECORDED_CONDITIONS: in formamide, 303.35 K

| SMILES_STR | solubility (mole fraction) |
| --- | --- |
| O=C([O-])c1ccccc1.[K+] | 0.0465 |

* * *

RECORDED_CONDITIONS: in formamide, 312.85 K
METRIC: solubility (mole fraction)

| SMILES_STR | ASSAY_RESULT |
| --- | --- |
| O=C([O-])c1ccccc1.[K+] | 0.0481 |

* * *

RECORDED_CONDITIONS: in DMAc, 303.35 K

| SMILES_STR | solubility (mole fraction) |
| --- | --- |
| O=C([O-])c1ccccc1.[K+] | 0.000333 |

* * *

RECORDED_CONDITIONS: in ethanol, 298.25 K

| SMILES_STR | solubility (mole fraction) |
| --- | --- |
| O=C([O-])c1ccccc1.[K+] | 0.00168 |

* * *

RECORDED_CONDITIONS: in DMF, 287.95 K
METRIC: solubility (mole fraction)

| SMILES_STR | METRIC | ASSAY_RESULT |
| --- | --- | --- |
| O=C([O-])c1ccccc1.[K+] | solubility (mole fraction) | 0.000372 |

* * *

RECORDED_CONDITIONS: in n-pentanol, 287.95 K

| SMILES_STR | solubility (mole fraction) |
| --- | --- |
| O=C([O-])c1ccccc1.[K+] | 0.000604 |

* * *

RECORDED_CONDITIONS: in methanol, 312.85 K

| SMILES_STR | solubility (mole fraction) |
| --- | --- |
| O=C([O-])c1ccccc1.[K+] | 0.0172 |

* * *

RECORDED_CONDITIONS: in methanol, 282.95 K
METRIC: solubility (mole fraction)

| SMILES_STR | ASSAY_RESULT |
| --- | --- |
| O=C([O-])c1ccccc1.[K+] | 0.0144 |

* * *

RECORDED_CONDITIONS: in n-butanol, 293.25 K
METRIC: solubility (mole fraction)

| SMILES_STR | ASSAY_RESULT |
| --- | --- |
| O=C([O-])c1ccccc1.[K+] | 0.000646 |

* * *

RECORDED_CONDITIONS: in DMAc, 317.95 K

| SMILES_STR | solubility (mole fraction) |
| --- | --- |
| O=C([O-])c1ccccc1.[K+] | 0.000425 |

* * *

RECORDED_CONDITIONS: in isobutanol, 282.95 K
METRIC: solubility (mole fraction)

| SMILES_STR | ASSAY_RESULT |
| --- | --- |
| O=C([O-])c1ccccc1.[K+] | 0.000248 |

* * *

RECORDED_CONDITIONS: in ethanol, 303.35 K
METRIC: solubility (mole fraction)

| SMILES_STR | ASSAY_RESULT |
| --- | --- |
| O=C([O-])c1ccccc1.[K+] | 0.00181 |
